- assaySystem: hNTS2 receptor (Homo sapiens)
- Construct: membranes prepared from them
- experiment: Competitive radioligand binding assay on the hNTS2 receptor
- statedConditions: ratio IC50 for NTS1 : IC50 for NTS2
Where a SMILES comes first, the peptide text is derived from it. Bridges are numbered along the chain shown (N, C = ends). [ ]: non-standard residue; d: D form. tBuAla = CC(C)(C)C[C@H](N)C(=O)O; AllylGly = C=CC[C@H](N)C(=O)O
valueType: Selectivity

molecule: CC(C)(C)C[C@H](NC(=O)[C@H](Cc1ccc(O)cc1)NC(=O)[C@@H]1CC=CC[C@H](N)C(=O)N[C@@H](CCCCN)C(=O)N[C@@H](CCCCN)C(=O)N1)C(=O)O [compound 49, c[G(All)KKG(All)]YNpg] (H-[AllylGly]KK[AllylGly]Y[tBuAla]-OH; staple 1-4)
assaySystem: hNTS2 receptor (Homo sapiens)
result: >2252

Okay, now this molecule:
Looking up CC(C)C[C@H](NC(=O)[C@H](Cc1ccc(O)cc1)NC(=O)[C@@H]1CC=CC[C@H](N)C(=O)N[C@H](CCCCN)C(=O)N[C@@H](CCCCN)C(=O)N1)C(=O)O [compound 82, c[G(All)K*KG(All)]YL] (H-[AllylGly][dK]K[AllylGly]YL-OH; staple 1-4) , I found its Selectivity recorded as >161

----------
- assaySystem: hNTS2 receptor (Homo sapiens, UniProt O95665)
- Construct: membranes prepared from them
- Sequence (O95665 whole entry): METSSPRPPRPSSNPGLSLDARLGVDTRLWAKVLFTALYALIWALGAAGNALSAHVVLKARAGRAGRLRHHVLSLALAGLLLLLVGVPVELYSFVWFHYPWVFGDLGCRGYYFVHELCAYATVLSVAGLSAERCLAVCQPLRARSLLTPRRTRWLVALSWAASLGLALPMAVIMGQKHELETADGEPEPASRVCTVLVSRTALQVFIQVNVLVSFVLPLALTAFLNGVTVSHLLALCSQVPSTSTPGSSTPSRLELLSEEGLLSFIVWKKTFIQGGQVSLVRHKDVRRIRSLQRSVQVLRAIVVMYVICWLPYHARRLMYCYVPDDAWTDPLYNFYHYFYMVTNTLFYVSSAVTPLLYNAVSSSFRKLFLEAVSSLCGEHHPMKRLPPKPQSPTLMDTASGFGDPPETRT
- experiment: Competitive radioligand binding assay on the hNTS2 receptor
- statedConditions: displacement of 125I-[Tyr3]-NT, membranes of 1321N1 cells expressing hNTS2; read-out: IC50 NTS2 (converted)
*1 amine or outer side, *2 acyl side, *3 side chain or, on linkers, in order; H or OH if unused. Where a SMILES comes first, the peptide text is derived from it. Bridges are numbered along the chain shown (N, C = ends). [ ]: non-standard residue; d: D form. X1 = O=C(C1C[C@@H]2CCCC[C@@H]2N1[*:1])[*:2]; AllylGly = C=CC[C@H](N)C(=O)O
valueType: IC50 (nM)
One number for each entry, in nM.

compound: NCCCC[C@@H]1NC(=O)[C@H](CCCCN)NC(=O)[C@@H](N)CC=CC[C@@H](C(=O)N[C@@H](Cc2ccc(O)cc2)C(=O)N[C@@H](Cc2ccccc2)C(=O)O)NC1=O [compound 32, c[G(All)KKG(All)]YF] (H-[AllylGly]KK[AllylGly]YF-OH; staple 1-4)
IC50 [nM]: 453

Provide the reported IC50 of each entry below, same order.
1. NCCCC[C@@H]1NC(=O)CCC=CC[C@@H](C(=O)N[C@@H](Cc2ccc(Br)cc2)C(=O)N[C@@H](CC2CCCC2)C(=O)O)NC(=O)[C@H](CCCCN)NC1=O
2. CC(C)C[C@H](NC(=O)[C@H](Cc1ccc(O)cc1)NC(=O)[C@@H]1CC=CCCC(=O)N[C@@H](CCCCN)C(=O)N[C@@H](CCCCN)C(=O)N1)C(=O)O [compound 60, c[K(Pentenoyl)KG(All)]YL]
3. CC(C)C[C@H](NC(=O)C1C[C@@H]2CCCC[C@@H]2N1C(=O)[C@@H]1CC=CC[C@H](N)C(=O)N[C@@H](CCCCN)C(=O)N[C@@H](CCCCN)C(=O)N1)C(=O)O (stereo partly drawn) [compound 166, c[G(All)KKG(All)p (octahydroindol)L] (H-[AllylGly]KK[AllylGly][X1]L-OH; staple 1-4)

[17.7, 47, 33.3]

----------
- assaySystem: hNTS2 receptor (Homo sapiens)
- Construct: membranes prepared from them
- experiment: Competitive radioligand binding assay on the hNTS2 receptor
- statedConditions: IC50 NTS2, displacement of 125I-[Tyr3]-NT, membranes of 1321N1 cells expressing hNTS2
Where a SMILES comes first, the peptide text is derived from it. Bridges are numbered along the chain shown (N, C = ends). [ ]: non-standard residue; d: D form. Phe(4-Br) = N[C@@H](Cc1ccc(Br)cc1)C(=O)O; Ala(cPent) = N[C@@H](CC1CCCC1)C(=O)O; AllylGly = C=CC[C@H](N)C(=O)O
Provide the reported IC50 of each item.
Give bare numbers, in nM.

compound: NCCCC[C@@H]1NC(=O)[C@H](CCCCN)NC(=O)[C@@H](N)CC=CC[C@@H](C(=O)N[C@@H](Cc2ccc(O)cc2)C(=O)N[C@@H](CC2CCCC2)C(=O)O)NC1=O [compound 67, c[G(All)KKG(All)]YA(cyclopentyl)] (H-[AllylGly]KK[AllylGly]Y[Ala(cPent)]-OH; staple 1-4)
IC50 / nM: 3.06

Okay, now this compound:
Looking up NCCCC[C@@H]1NC(=O)[C@H](CCCCN)NC(=O)[C@@H](N)CC=CC[C@@H](C(=O)N[C@@H](Cc2ccc(Br)cc2)C(=O)N[C@@H](CC2CCCC2)C(=O)O)NC1=O [compound 127] (H-[AllylGly]KK[AllylGly][Phe(4-Br)][Ala(cPent)]-OH; staple 1-4) , I found its IC50 recorded as 2

----------
- assaySystem: hNTS2 receptor (Homo sapiens)
- Construct: membranes prepared from them
- experiment: Competitive radioligand binding assay on the hNTS2 receptor
- statedConditions: ratio IC50 for NTS1 : IC50 for NTS2
Where a SMILES comes first, the peptide text is derived from it. Bridges are numbered along the chain shown (N, C = ends). [ ]: non-standard residue; d: D form. Phe(4-tBu) = CC(C)(C)c1ccc(C[C@H](N)C(=O)O)cc1; Phe(3-Cl) = N[C@@H](Cc1cccc(Cl)c1)C(=O)O; Cit = NC(=O)NCCC[C@H](N)C(=O)O; AllylGly = C=CC[C@H](N)C(=O)O; Pen = CC(C)(S)[C@H](N)C(=O)O; hLys = NCCCCC[C@H](N)C(=O)O; Dap = NC[C@H](N)C(=O)O
valueType: Selectivity

Reference set, count: 4
molecule: CC(C)C[C@H](NC(=O)[C@H](Cc1ccc(O)cc1)NC(=O)[C@@H]1CC=CC[C@H](N)C(=O)N[C@@H](CCCNC(N)=O)C(=O)N[C@@H](CCCNC(N)=O)C(=O)N1)C(=O)O [compound 148, c[G(All)citrulline-citrullineG (All)]YL] (H-[AllylGly][Cit][Cit][AllylGly]YL-OH; staple 1-4)
Selectivity: 13
--
molecule: CC(C)C[C@H](NC(=O)[C@H](Cc1cccc(Cl)c1)NC(=O)[C@@H]1CC=CC[C@H](N)C(=O)N[C@@H](CCCCN)C(=O)N[C@@H](CCCCN)C(=O)N1)C(=O)O [compound 113, c[G(All)KKG(All)]F(3-chloro)L] (H-[AllylGly]KK[AllylGly][Phe(3-Cl)]L-OH; staple 1-4)
Selectivity: >2084
--
molecule: CC(C)C[C@H](NC(=O)[C@H](Cc1ccc(O)cc1)NC(=O)[C@@H]1CC=CC[C@H](N)C(=O)N[C@@H](CCCCCN)C(=O)N[C@@H](CCCCCN)C(=O)N1)C(=O)O [compound 151, c[G(All)K(homo)K (homo)G(All)]YL] (H-[AllylGly][hLys][hLys][AllylGly]YL-OH; staple 1-4)
Selectivity: 962
--
molecule: CC1(C(=O)N[C@@H](Cc2ccc(O)cc2)C(=O)N[C@@H](CC2CCCC2)C(=O)O)CCCC=CCCC(=O)N[C@@H](CCCCN)C(=O)N[C@@H](CCCCN)C(=O)N1 (stereo partly shown) [compound 135]
Selectivity: 2179

Provide the reported Selectivity of each entry below, same order.
1. CC(C)C[C@H](NC(=O)[C@H](Cc1ccc(O)cc1)NC(=O)[C@@H]1CC=CC[C@H](N)C(=O)N[C@@H](CCCCN)C(=O)N[C@@H](CN)C(=O)N1)C(=O)O [compound 53, c[G(All)KDapG(All)]YL] (H-[AllylGly]K[Dap][AllylGly]YL-OH; staple 1-4)
2. CC(C)C[C@H](NC(=O)[C@H](Cc1ccc(C(C)(C)C)cc1)NC(=O)[C@@H]1CC=CC[C@H](N)C(=O)N[C@@H](CCCCN)C(=O)N[C@@H](CCCCN)C(=O)N1)C(=O)O [compound 110, c[G(All)KKG(All)]F(4-tbu)L] (H-[AllylGly]KK[AllylGly][Phe(4-tBu)]L-OH; staple 1-4)
3. CC(C)C[C@H](NC(=O)[C@H](Cc1ccc(O)cc1)NC(=O)[C@H]1NC(=O)[C@H](CCCCN)NC(=O)[C@H](CCCCN)NC(=O)[C@@H](N)CSSC1(C)C)C(=O)O [compound 153, c[CKKPen]YL] (H-CKK[Pen]YL-OH; disulfide 1-4)

1. >490.9
2. >2488
3. 2871

----------
- assaySystem: hNTS2 receptor (Homo sapiens, UniProt O95665)
- Construct: membranes prepared from them
- experiment: Competitive radioligand binding assay on the hNTS2 receptor
- statedConditions: displacement of 125I-[Tyr3]-NT, membranes of 1321N1 cells expressing hNTS2; read-out: IC50 NTS2 (converted)
*1 amine or outer side, *2 acyl side, *3 side chain or, on linkers, in order; H or OH if unused. Where a SMILES comes first, the peptide text is derived from it. Bridges are numbered along the chain shown (N, C = ends). [ ]: non-standard residue; d: D form. X2 = O=C([C@H](Cc1cc(F)c(F)cc1F)N[*:1])[*:2]; hCha = N[C@@H](CCC1CCCCC1)C(=O)O; AllylGly = C=CC[C@H](N)C(=O)O; hLys = NCCCCC[C@H](N)C(=O)O; Nva = CCC[C@H](N)C(=O)O; Dap = NC[C@H](N)C(=O)O
Provide the reported log10 IC50 of each item.
Base-10 log of IC50, unit nM.

Reference set, count: 5
compound: CC(C)C[C@H](NC(=O)[C@H](Cc1ccc(O)cc1)NC(=O)[C@@H]1CNC(=O)C[C@H](N)C(=O)N[C@@H](CCCCN)C(=O)N[C@@H](CCCCN)C(=O)N1)C(=O)O [compound 103, c[DKKDap]YL] (H-DKK[Dap]YL-OH; lactam 1-4)
assaySystem: hNTS2 receptor (Homo sapiens, UniProt O95665)
log10 IC50: 3.96

compound: NCCCC[C@@H]1NC(=O)[C@H](CCCCN)NC(=O)[C@@H](N)CC=CC[C@@H](C(=O)N[C@@H](Cc2ccc(O)cc2)C(=O)N[C@@H](Cc2cc(F)c(F)cc2F)C(=O)O)NC1=O [compound 63, c[G(All)KKG(All)]YF(2,4,5-trifluoro)] (H-[AllylGly]KK[AllylGly]Y[X2]-OH; staple 1-4)
assaySystem: hNTS2 receptor (Homo sapiens, UniProt O95665)
log10 IC50: 2.56

compound: CC(C)C[C@H](NC(=O)[C@H](Cc1ccc(O)cc1)NC(=O)[C@@H]1CC=CC[C@H](N)C(=O)N[C@@H](CCCCN)C(=O)N[C@@H](CN)C(=O)N1)C(=O)O [compound 53, c[G(All)KDapG(All)]YL] (H-[AllylGly]K[Dap][AllylGly]YL-OH; staple 1-4)
assaySystem: hNTS2 receptor (Homo sapiens, UniProt O95665)
log10 IC50: 2.31

compound: CC(C)C[C@H](NC(=O)[C@H](Cc1ccc(O)cc1)NC(=O)[C@@H]1CC=CC[C@H](NC(=O)[C@@H](N)CCCCN)C(=O)N[C@@H](CCCCN)C(=O)N[C@@H](CCCCN)C(=O)N1)C(=O)O [compound 156, Kc[G(All)KKG(All)]YL] (H-K[AllylGly]KK[AllylGly]YL-OH; staple 2-5)
assaySystem: hNTS2 receptor (Homo sapiens, UniProt O95665)
log10 IC50: 0.82

compound: NCCCC[C@@H]1NC(=O)[C@H](CCCCN)NC(=O)[C@@H](N)CC=CC[C@@H](C(=O)N[C@@H](Cc2ccc(O)cc2)C(=O)N[C@@H](CCC2CCCCC2)C(=O)O)NC1=O [compound 64, c[G(All)KKG(All)]YA(homoChA)] (H-[AllylGly]KK[AllylGly]Y[hCha]-OH; staple 1-4)
assaySystem: hNTS2 receptor (Homo sapiens, UniProt O95665)
log10 IC50: 0.89

Provide the reported log10 IC50 of each entry below, same order.
1. CCC[C@@H]1NC(=O)[C@H](CCCCN)NC(=O)[C@@H](N)CC=CC[C@@H](C(=O)N[C@@H](Cc2ccc(O)cc2)C(=O)N[C@@H](CC(C)C)C(=O)O)NC1=O [compound 58, c[G(All)KNvaG(All)]YL] (H-[AllylGly]K[Nva][AllylGly]YL-OH; staple 1-4)
2. CC(C)C[C@H](NC(=O)[C@H](Cc1ccc(O)cc1)NC(=O)[C@@H]1CC=CC[C@H](N)C(=O)N[C@@H](CCCCCN)C(=O)N[C@@H](CCCCCN)C(=O)N1)C(=O)O [compound 151, c[G(All)K(homo)K (homo)G(All)]YL] (H-[AllylGly][hLys][hLys][AllylGly]YL-OH; staple 1-4)

2.86
2.02
